This section presents molecules with their documented Morningglory plant response rating values.
test system: morningglory; test: Test B pre/postemergence morningglory; assay type: in vivo, Ipomoea hederacea; details: Postemergence, Rate 62 g/ha; scale 0 to 10, 0 is no effect, 10 is complete control
// no unit string in output, number only

Reference set (3 entries):
• Cc1ccccc1-n1c(=O)on(C(=O)N(c2ccc(C#N)cc2)C(C)C)c1=O = 0
• CCc1ccccc1-n1c(=O)on(C(=O)N(c2ccc(F)cc2F)C(C)C)c1=O = 0
• Cc1ccccc1-n1c(=O)on(C(=O)N(c2ccc(F)cc2)C(C)C)c1=O = 0

Next, consider the following molecule.
Data request: Could you tell me which Morningglory plant response rating is on file for Cc1ccccc1Cn1c(=O)on(C(=O)N(c2ccc(F)cc2)C(C)C)c1=O ?
Data returned: 8

* * *

test system: bedstraw; experiment: Test B pre/postemergence bedstraw; assay type: in vivo, Galium aparine; details: Rate 125 g/ha, Postemergence; scale of 0 to 10 where 0 is no effect and 10 is complete control
This section presents compounds with their documented Bedstraw plant response rating values.
// no unit string in output, number only

Reference set (5 entries):
* CC(C)N(C(=O)n1oc(=O)n(CCCF)c1=O)c1ccc(F)cc1 | 8
* Cc1cccc(C)c1-n1c(=O)on(C(=O)N(c2ccc(Cl)cc2Cl)C2CCC2)c1=O | 0
* CC(C)=CCn1c(=O)on(C(=O)N(c2ccc(F)cc2)C(C)C)c1=O | 0
* CC(C)N(C(=O)n1oc(=O)n(C2CCCCO2)c1=O)c1ccc(F)cc1 (stereo not drawn) | 0
* C=CCn1c(=O)on(C(=O)N(c2ccc(F)cc2)C(C)C(=O)OCC)c1=O (stereo not drawn) | 0

Next, consider the following compound.
Data request: Could you tell me which Bedstraw plant response rating is on file for CCN(CC)C(=O)n1oc(=O)n(C2CC2)c1=O ?
Data returned: 0

* * *

Tested on: bedstraw
Test: Test B pre/postemergence bedstraw
Type: in vivo, Galium aparine
Conditions: Rate 500 g/ha, Postemergence; scale 0 to 10, 0 no effect, 10 complete control
Description: […] At the same time, these crop and weed species were also treated with postemergence applications of test chemicals formulated in the same manner. […] Treated plants and controls were maintained in a greenhouse for twelve to sixteen days, after which all species were compared to controls and visually evaluated. […]
This section presents compounds with their documented Bedstraw plant response rating values.

- Cc1ccccc1-n1c(=O)on(C(=O)N(c2ccc(N(C)C)cc2)C(C)C)c1=O: 3
- Cc1ccccc1-n1c(=O)on(C(=O)N(c2ccc(F)cc2)C(C)C2CC2)c1=O (stereo not shown): 5
- CC(C)N(C(=O)n1oc(=O)n(C2CCCC2)c1=O)c1ccc(F)cc1F: 9
- CC(C)N(C(=O)n1oc(=O)n(C2CC2)c1=O)c1ccc(Cl)cc1: 7
- CCCCCC#CCn1c(=O)on(C(=O)N(c2ccc(F)cc2)C(C)C)c1=O: 4
- Cc1cnn(C)c1-n1c(=O)on(C(=O)N(c2ccc(F)cc2)C(C)C)c1=O: 0

Data request: Could you tell me which Bedstraw plant response rating is on file for CC(C)N(C(=O)n1oc(=O)n(CC2(C)COC2)c1=O)c1ccc(F)cc1 ?
Data returned: 7

* * *

system: blackgrass; experiment: Test B pre/postemergence blackgrass; format: in vivo, Alopecurus myosuroides; details: Rate 125 g/ha; Preemergence; scale of 0 to 10 where 0 is no effect and 10 is complete control
This section presents compounds with their documented Blackgrass plant response rating values.
// no unit string in output, number only

• CC(C)N(C(=O)n1oc(=O)n(CC#C[Si](C)(C)C)c1=O)c1ccc(F)cc1 = 0

Data request: Could you tell me which Blackgrass plant response rating is on file for Cc1ccccc1-n1c(=O)on(C(=O)N(c2ccc(F)cc2)C(C)C2CC2)c1=O (stereo not shown) ?
Data returned: 0

Data request: Would you mind doing CCN(CC)C(=O)n1oc(=O)n(C2CC2)c1=O as well?
Data returned: 0

Data request: Would you mind doing CC(C)N(C(=O)n1oc(=O)n(C(C)C(=O)c2ccccc2)c1=O)c1ccc(F)cc1 (stereo not shown) as well?
Data returned: 0

* * *

test system: pigweed; assay: Test B pre/postemergence pigweed; format: in vivo, Amaranthus retroflexus; conditions: Postemergence, Rate 125 g/ha; scale of 0 to 10 where 0 is no effect and 10 is complete control
Recorded metric: Redroot pigweed plant response rating
// no unit string in output, number only

Reference set (4 entries):
* Cc1ccccc1Cn1c(=O)on(C(=O)N(c2ccc(F)cc2)C(C)C)c1=O | 3
* C#CC(C)n1c(=O)on(C(=O)N(c2ccc(F)cc2)C(C)C)c1=O (centres unmarked) | 0
* CC(C)N(C(=O)n1oc(=O)n(CC(F)(F)F)c1=O)c1ccc(F)cc1 | 2
* COC(=O)C(c1ccccc1)n1c(=O)on(C(=O)N(c2ccc(F)cc2)C(C)C)c1=O (centres unmarked) | 2

Data request: Could you tell me which Redroot pigweed plant response rating is on file for CCOC(CC)n1c(=O)on(C(=O)N(c2ccc(Cl)cc2)C(C)C)c1=O (centres unmarked) ?
Data returned: 0

Data request: Would you mind doing C#CCn1c(=O)on(C(=O)N(c2ccc(F)cc2)C(C)C)c1=O as well?
Data returned: 0

Data request: Would you mind doing CC(C)N(C(=O)n1oc(=O)n(CCCC#N)c1=O)c1ccc(F)cc1 as well?
Data returned: 4

Data request: Would you mind doing CCc1noc(CC)c1-n1c(=O)on(C(=O)N(c2ccc(F)cc2)C(C)C)c1=O as well?
Data returned: 0

* * *

This section presents compounds with their documented Barnyardgrass plant response rating values.
test system: bamyardgrass; assay: Test B flood test barnyardgrass; assay type: in vivo, Echinochloa crus-galli; settings: Rate 125 g/ha; Postemergence section (flood test species); scale 0 to 10, 0 no effect, 10 complete control
// no unit string in output, number only

Reference set (5 entries):
* CCN(C(=O)n1oc(=O)n(-c2c(C)cc(C)cc2C)c1=O)C1CCCCC1 [Compound 63] | 0
* CCc1ccccc1-n1c(=O)on(C(=O)N(c2ccc(F)cc2F)C(C)C)c1=O [Compound 45] | 0
* CC(C)N(C(=O)n1oc(=O)n(Cc2cccs2)c1=O)c1ccc(F)cc1 [Compound 80] | 3
* Cc1ccccc1-n1c(=O)on(C(=O)N(c2ccc(C#N)cc2)C(C)C)c1=O [Compound 51] | 0
* CC(C)Oc1cc(-n2c(=O)on(C(=O)N(c3ccc(F)cc3)C(C)C)c2=O)c(Cl)cc1Cl [Compound 43] | 0

Data request: Could you tell me which Barnyardgrass plant response rating is on file for COc1ccc(-n2c(=O)on(C(=O)N(c3ccc(F)cc3)C(C)C)c2=O)c(C)c1 [Compound 35] ?
Data returned: 0

* * *

test system: sugar beet; assay: Test B pre/postemergence sugar beet; assay type: in vivo, Beta vulgaris; conditions: Rate 125 g/ha; Postemergence; scale 0 to 10, 0 no effect, 10 complete control
Recorded metric: Sugarbeets plant response rating

Reference set (5 entries):
* COc1ccc(-n2c(=O)on(C(=O)N(C3=CCOCC3)C(C)C)c2=O)cc1 [Compound 6] | 0
* CC(C)N(C(=O)n1oc(=O)n(-c2cc(Cl)cc(Cl)c2)c1=O)C1=CCOCC1 [Compound 9] | 0
* Cc1nn(C)c(C)c1-n1c(=O)on(C(=O)N(c2ccc(F)cc2)C(C)C)c1=O [Compound 75] | 0
* Cc1ccccc1-n1c(=O)on(C(=O)N(c2ccc(F)cc2)C(C)C)c1=O [Compound 4] | 2
* CCN(CC)C(=O)n1oc(=O)n(-c2ccc(OC)cc2)c1=O [Compound 1] | 0

Next, consider the following compound.
Data request: Could you tell me which Sugarbeets plant response rating is on file for Cc1ccccc1-n1c(=O)on(C(=O)N(c2ccc(C#N)cc2)C(C)C)c1=O [Compound 51] ?
Data returned: 0

* * *

test system: velvetleaf; experiment: Test B pre/postemergence velvetleaf; assay type: in vivo, Abutilon theophrasti; details: Preemergence, Rate 62 g/ha; scale 0 to 10 (0 no effect, 10 complete control)
Recorded metric: Velvetleaf plant response rating
// no unit string in output, number only

• CCCn1c(=O)on(C(=O)N(c2ccc(Cl)cc2)C(C)C)c1=O [Compound 119] = 0
• CCC(C)n1c(=O)on(C(=O)N(c2ccc(F)cc2)C(C)C)c1=O (stereo not shown) [Compound 613] = 7
• CC(C)N(C(=O)n1oc(=O)n(CC2CC2)c1=O)c1ccccc1 [Compound 568] = 5
• CCOC(Cn1c(=O)on(C(=O)N(c2ccccc2)C(C)C)c1=O)OCC [Compound 632] = 0

Data request: Could you tell me which Velvetleaf plant response rating is on file for CCN(C(=O)n1oc(=O)n(-c2c(C)cc(C)cc2C)c1=O)C1CCCCC1 [Compound 63] ?
Data returned: 0

Data request: Would you mind doing COC(=O)CCCn1c(=O)on(C(=O)N(c2ccccc2)C(C)C)c1=O [Compound 572] as well?
Data returned: 0

Data request: Would you mind doing Cc1noc(C)c1-n1c(=O)on(C(=O)N(c2ccc(F)cc2)C(C)C)c1=O [Compound 155] as well?
Data returned: 0
